# Tested on: Escherichia coli TOP10
# measurement_protocol: shrunken log2 fold change of peptide-encoding DNA abundance (4.5 h post-induction vs induction); higher = less antimicrobial activity (less host growth inhibition)
# conditions_used: time post-induction: 4.5 h; library: site-saturation at positions 5, 18, 19, 20
Each entry falls into one class according to its shrunken log2 fold change; the ranges are one: < -0.3; two: ≥ -0.3 and < 0.4; three: ≥ 0.4

Determine which band this sequence sits in: RRIRMRPPRLPRPRPRPPQGPRP
three

Determine which band this sequence sits in: RRIRKRPPRLPRPRPRPCASPRP
two

Determine which band this sequence sits in: RRIRDRPPRLPRPRPRPNNEPRP
one

Determine which band this sequence sits in: RRIRHRPPRLPRPRPRPFRYPRP
one

Determine which band this sequence sits in: RRIRQRPPRLPRPRPRPFLMPRP
one

Determine which band this sequence sits in: RRIRTRPPRLPRPRPRPIFNPRP
one

Determine which band this sequence sits in: RRIRKRPPRLPRPRPRPVPQPRP
two

Determine which band this sequence sits in: RRIRHRPPRLPRPRPRPDTRPRP
two

Determine which band this sequence sits in: RRIRIRPPRLPRPRPRPSRAPRP
two

Determine which band this sequence sits in: RRIRDRPPRLPRPRPRPGPRPRP
three

Determine which band this sequence sits in: RRIRVRPPRLPRPRPRPVVYPRP
two

Determine which band this sequence sits in: RRIRRRPPRLPRPRPRPWYGPRP
two

Determine which band this sequence sits in: RRIRMRPPRLPRPRPRPPDFPRP
three

---

# System: Escherichia coli TOP10
# measurement_protocol: shrunken log2 fold change of peptide-encoding DNA abundance (4.5 h post-induction vs induction); higher = less antimicrobial activity (less host growth inhibition)
# conditions_used: time post-induction: 4.5 h; library: site-saturation at positions 5, 18, 19, 20
I'd be grateful if you could share measured shrunken log2 fold change for these entries.
// no unit string in output, number only

Measured shrunken log2 fold change of RRIRCRPPRLPRPRPRPMTMPRP : -0.27

Measured shrunken log2 fold change of RRIRQRPPRLPRPRPRPMSPPRP : -0.11

Measured shrunken log2 fold change of RRIRIRPPRLPRPRPRPKWCPRP : -0.317

Measured shrunken log2 fold change of RRIRHRPPRLPRPRPRPRYFPRP : -0.439

Measured shrunken log2 fold change of RRIRRRPPRLPRPRPRPRGFPRP : 0.131

Measured shrunken log2 fold change of RRIRQRPPRLPRPRPRPANAPRP : -0.0699

Measured shrunken log2 fold change of RRIRLRPPRLPRPRPRPYTWPRP : -0.716

Measured shrunken log2 fold change of RRIRYRPPRLPRPRPRPNLLPRP : -0.213

---

# Test system: Escherichia coli TOP10;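 note: peptides expressed intracellularly from a pBAD plasmid library in pooled LB shake-flask culture, induced with 0.3% L-arabinose, DNA abundance read by NGS, three biological replicates, DESeq2 with apeglm shrinkage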
# measurement_protocol: shrunken log2 fold change of peptide-encoding DNA abundance (4.5 h post-induction vs induction); higher = less antimicrobial activity (less host growth inhibition)
# conditions_used: time post-induction: 4.5 h; library: site-saturation at positions 5, 18, 19, 20
value_kind: shrunken log2 fold change

Measured shrunken log2 fold change of RRIRGRPPRLPRPRPRPPYSPRP : -0.084

Measured shrunken log2 fold change of RRIRYRPPRLPRPRPRPIRYPRP : -0.00146

Measured shrunken log2 fold change of RRIRSRPPRLPRPRPRPPAKPRP : 1.05

Measured shrunken log2 fold change of RRIRSRPPRLPRPRPRPSQPPRP : -0.14

Measured shrunken log2 fold change of RRIRKRPPRLPRPRPRPSKKPRP : 0.0529

Measured shrunken log2 fold change of RRIRWRPPRLPRPRPRPQEDPRP : -0.0221

Measured shrunken log2 fold change of RRIRVRPPRLPRPRPRPNRMPRP : -0.093

Measured shrunken log2 fold change of RRIRARPPRLPRPRPRPKFNPRP : -0.129

Measured shrunken log2 fold change of RRIRSRPPRLPRPRPRPQAAPRP : 0.544

Measured shrunken log2 fold change of RRIRTRPPRLPRPRPRPHKPPRP : -0.0565

Measured shrunken log2 fold change of RRIRHRPPRLPRPRPRPTSDPRP : -0.302

Measured shrunken log2 fold change of RRIRMRPPRLPRPRPRPNYHPRP : -0.525

Measured shrunken log2 fold change of RRIRYRPPRLPRPRPRPPRRPRP : 0.261

Measured shrunken log2 fold change of RRIRHRPPRLPRPRPRPAETPRP : -0.074

Measured shrunken log2 fold change of RRIRRRPPRLPRPRPRPWALPRP : -0.0259

Measured shrunken log2 fold change of RRIRARPPRLPRPRPRPDIEPRP : -0.0212

Measured shrunken log2 fold change of RRIRTRPPRLPRPRPRPAFMPRP : -0.0227

Measured shrunken log2 fold change of RRIRVRPPRLPRPRPRPPHDPRP : 0.65

Measured shrunken log2 fold change of RRIRKRPPRLPRPRPRPQKEPRP : -0.00503

Measured shrunken log2 fold change of RRIRSRPPRLPRPRPRPDKSPRP : -0.2

Measured shrunken log2 fold change of RRIRYRPPRLPRPRPRPHGLPRP : 0.0126

Measured shrunken log2 fold change of RRIRCRPPRLPRPRPRPASTPRP : -0.481

Measured shrunken log2 fold change of RRIRPRPPRLPRPRPRPVPIPRP : 0.0844

Measured shrunken log2 fold change of RRIRARPPRLPRPRPRPAGNPRP : 0.129

Measured shrunken log2 fold change of RRIRKRPPRLPRPRPRPYSIPRP : -0.182

Measured shrunken log2 fold change of RRIRIRPPRLPRPRPRPWQRPRP : -0.075

Measured shrunken log2 fold change of RRIRVRPPRLPRPRPRPAVFPRP : 0.265

Measured shrunken log2 fold change of RRIRQRPPRLPRPRPRPRSYPRP : -0.286

Measured shrunken log2 fold change of RRIRNRPPRLPRPRPRPHWLPRP : -0.101

Measured shrunken log2 fold change of RRIRRRPPRLPRPRPRPYHGPRP : -0.169

Measured shrunken log2 fold change of RRIRCRPPRLPRPRPRPWTAPRP : -0.212

Measured shrunken log2 fold change of RRIRARPPRLPRPRPRPIMAPRP : 0.0923
